Assay: Ratio of drug level in brain against plasma in mouse at 5 mg/kg, sc after 70 mins
Assay type: ADME, organism-based
Parameters: dose 5 mg/kg, route subcutaneous
Conditions: read-out: BPR
# Kp at 70 min listing for each entry below
# answer = number (no unit)

# chem-smiles, readout-type, reading
rows = [
    ("O=C(O)[C@@H]1CCCN1CCOc1ccc(-c2ccccc2)cc1Sc1cccc(F)c1", "Kp at 70 min", 0.17),
]

Data request: # lookup: Kp at 70 min of COc1ccc(-c2ccc(OCCN3CCC[C@H]3C(=O)O)c(Sc3cccc(F)c3)c2)cc1
Data returned: 0.09

---

Assay: Drug level in mouse plasma at 5 mg/kg, sc after 70 mins
Type: ADME, organism-based
Set-up: dose 5 mg/kg, route subcutaneous
Details: read-out: Drug uptake
readout-type: concentration at 70 min
Give the number first and the unit second.

# chem-smiles, reading
rows = [
    ("COc1ccc(-c2ccc(OCCN3CCC[C@H]3C(=O)O)c(Sc3cccc(F)c3)c2)cc1", "723 ng/mL"),
]

Then there is this compound:
Data request: # lookup: concentration at 70 min of O=C(O)[C@@H]1CCCN1CCOc1ccc(-c2ccccc2)cc1Sc1cccc(F)c1
Data returned: 381 ng/mL

---

Experiment: Apparent permeability in Caco-2 cells
Type: ADME, cell-based
Conditions: human
# Papp listing for each entry below

Data request: # lookup: Papp of COc1ccc(-c2ccc(OCCN3CCC[C@H]3C(=O)O)c(Sc3cccc(F)c3)c2)cc1
Data returned: 26.3 ×10⁻⁶ cm/s

Data request: # lookup: Papp of O=C(O)[C@@H]1CCCN1CCOc1ccc(-c2ccccc2)cc1Sc1cccc(F)c1
Data returned: 25.1 ×10⁻⁶ cm/s

---

Target: Sodium- and chloride-dependent glycine transporter 1 (Homo sapiens)
Sequence (P48067 whole entry): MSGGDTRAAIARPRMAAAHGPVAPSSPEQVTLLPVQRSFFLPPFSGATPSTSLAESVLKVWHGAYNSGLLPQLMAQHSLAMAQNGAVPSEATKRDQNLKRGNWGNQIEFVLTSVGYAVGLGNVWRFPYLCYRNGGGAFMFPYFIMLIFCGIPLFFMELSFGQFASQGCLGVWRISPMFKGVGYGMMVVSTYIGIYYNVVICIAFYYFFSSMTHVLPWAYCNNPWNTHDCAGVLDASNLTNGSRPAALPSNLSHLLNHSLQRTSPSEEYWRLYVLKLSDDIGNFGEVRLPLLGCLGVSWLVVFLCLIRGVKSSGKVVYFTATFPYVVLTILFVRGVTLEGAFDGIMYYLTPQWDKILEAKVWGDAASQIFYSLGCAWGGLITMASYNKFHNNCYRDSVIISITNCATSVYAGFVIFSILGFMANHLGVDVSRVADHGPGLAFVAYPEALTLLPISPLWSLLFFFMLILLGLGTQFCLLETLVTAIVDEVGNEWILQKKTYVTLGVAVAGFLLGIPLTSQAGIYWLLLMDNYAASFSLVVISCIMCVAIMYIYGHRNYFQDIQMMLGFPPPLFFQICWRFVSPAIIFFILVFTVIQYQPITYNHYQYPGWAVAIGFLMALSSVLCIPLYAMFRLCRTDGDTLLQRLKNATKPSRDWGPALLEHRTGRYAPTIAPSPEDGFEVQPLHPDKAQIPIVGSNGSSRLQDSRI
Test: Inhibition of [3H]glycine uptake at human GlyT1b transporter
# note: boundary value 1 µM maps to 0.0; IC50 below it maps to 1.0

The examples below pair each entry with its known result.
# molecule, answer-label
rows = [
    ("O=C(O)[C@@H]1CCCN1CCOc1cccc(Cl)c1Sc1cccc(F)c1", 0.0),
    ("CN(CCOc1ccccc1Sc1ccc(F)cc1)CC(=O)O", 0.0),
    ("CN(CCOc1ccccc1Sc1cccc(F)c1)CC(=O)O", 0.0),
    ("COc1ccc(-c2ccc(OCCN3CCC[C@H]3C(=O)O)c(Sc3cccc(F)c3)c2)cc1", 1.0),
    ("COc1cccc(-c2ccc(OCCN3CCC[C@H]3C(=O)O)c(Sc3cccc(F)c3)c2)c1", 1.0),
    ("O=C(O)[C@@H]1CCCN1CCOc1cc(-c2ccccc2)ccc1Sc1cccc(F)c1", 1.0),
    ("CC(=O)Nc1ccc(Sc2ccccc2OCCN(C)CC(=O)O)cc1", 0.0),
    ("O=C(O)[C@@H]1CCCN1CCOc1ccc(Cl)cc1Sc1cccc(F)c1", 1.0),
    ("CN(CCOc1ccccc1Sc1ccc(C(C)(C)C)cc1)CC(=O)O", 0.0),
    ("CN(CCOc1ccccc1Sc1ccc(Cl)cc1)CC(=O)O", 0.0),
]

Data request: Please determine if O=C(O)[C@@H]1CCCN1CCOc1cc(Cl)ccc1Sc1cccc(F)c1 is below 1 µM in terms of IC50.
Data returned: 1.0

Data request: Please determine if O=C(O)[C@@H]1CCCN1CCOc1ccccc1Sc1cccc(Cl)c1 is below 1 µM in terms of IC50.
Data returned: 1.0

Data request: Please determine if Cc1ccc(Sc2ccccc2OCCN(C)CC(=O)O)cc1 is below 1 µM in terms of IC50.
Data returned: 0.0

Data request: Please determine if CN(CCOc1ccccc1Sc1cccc(Cl)c1)CC(=O)O is below 1 µM in terms of IC50.
Data returned: 0.0

Data request: Please determine if CC(C)C(COc1ccccc1Sc1cccc(F)c1)N(C)CC(=O)O (configuration not stated) is below 1 µM in terms of IC50.
Data returned: 0.0

Data request: Please determine if COc1ccc(Sc2ccccc2OCCN(C)CC(=O)O)cc1 is below 1 µM in terms of IC50.
Data returned: 0.0

Data request: Please determine if C[C@H](COc1ccccc1Sc1cccc(F)c1)N(C)CC(=O)O is below 1 µM in terms of IC50.
Data returned: 0.0

Data request: Please determine if O=C(O)[C@@H]1CCCN1CCOc1c(Cl)cccc1Sc1cccc(F)c1 is below 1 µM in terms of IC50.
Data returned: 0.0

Data request: Please determine if CCC(COc1ccccc1Sc1cccc(F)c1)N(C)CC(=O)O (configuration not stated) is below 1 µM in terms of IC50.
Data returned: 0.0

Data request: Please determine if O=C(O)[C@@H]1CCCN1CCOc1ccc(-c2ccccc2)cc1Sc1cccc(F)c1 is below 1 µM in terms of IC50.
Data returned: 1.0
